Test system: NanoLuc
assay.info: NanoLuc luciferase reporter expression from constitutive promoters and RBSs integrated with pNBU2
Type: cell-based, B. thetaiotaomicron
condition.details: RBS combined with promoter PBT1311, NanoLuc reporter, three biological replicates
Procedure: FIGS. 1A-1G. Genetic parts to control expression in B. thetaiotaomicron. (FIG. 1A) The ranges of gene expression are shown for the different gene regulation systems provided herein. (FIG. 1B) IntN2 catalyzes stable integration of pNBU2-based expression constructs into one of two attBT2 sites in the B. thetaiotaomicron genome. […] (FIG. 1D) Activity was measured for a set of constitutive promoters and their cognate RBSs. […] Gene expression was measured using a luciferase reporter (NanoLuc). […]
property.name: Average Luminescence (RLU/CFU)

substance="C1: RBS, SEQ ID NO: 11 (DNA TCCCGCATTTTAAAATAAAATAAATTATTGATTTAGTTAAACGAAT; chemistry not fully specified)" property_name="Average Luminescence (RLU/CFU)" test_result=0.04468
substance="C48: RBS, SEQ ID NO: 128 (DNA TCCCGCATTTTAAAATAAAATAAATTATTCCTTTAGTTAAACGAAT; chemistry not fully specified)" property_name="Average Luminescence (RLU/CFU)" test_result=0.001758
substance="B40: RBS, SEQ ID NO: 134 (DNA TCCCGCATTTTAAAATAAAATAAATCATGTAGTTAATTAAACGAAT; chemistry not fully specified)" property_name="Average Luminescence (RLU/CFU)" test_result=0.001108

---

Tested on: NanoLuc
assay.info: NanoLuc luciferase reporter expression from constitutive promoters and RBSs integrated with pNBU2
Type: cell-based, B. thetaiotaomicron
condition.details: RBS combined with promoter PBT1311, NanoLuc reporter, three biological replicates
Checkbox rule: Average Luminescence (RLU/CFU) lower than 0.01 RLU/CFU = Criterion met; Average Luminescence (RLU/CFU) not lower than 0.01 RLU/CFU = Criterion not met.

substance="A22: RBS, SEQ ID NO: 78 (DNA TCCCGCATTTTAAAATAAAATAAATTATTGCTTTATTTAAACGAAT; chemistry not fully specified)" answer_label="Criterion met"
substance="B18: RBS, SEQ ID NO: 35 (DNA TCCCGCATTTTAAAATAAAATAAATAATGTAGTTAATTAAACGAAT; chemistry not fully specified)" answer_label="Criterion not met"
substance="C34: RBS, SEQ ID NO: 96 (DNA TCCCGCATTTTAAAATAAAATAAATTATTCTTTTACTTAAACGAAT; chemistry not fully specified)" answer_label="Criterion met"
substance="A16: RBS, SEQ ID NO: 65 (DNA TCCCGCATTTTAAAATAAAATAAATTATTTATTTACTTAAACGAAT; chemistry not fully specified)" answer_label="Criterion not met"
substance="C22: RBS, SEQ ID NO: 57 (DNA TCCCGCATTTTAAAATAAAATAAATTATTGTTTTAATTAAACGAAT; chemistry not fully specified)" answer_label="Criterion not met"
substance="C55: RBS, SEQ ID NO: 142 (DNA TCCCGCATTTTAAAATAAAATAAATTATTCGTTTACTTAAACGAAT; chemistry not fully specified)" answer_label="Criterion met"
substance="A29: RBS, SEQ ID NO: 95 (DNA TCCCGCATTTTAAAATAAAATAAATTATTCCTTTATTTAAACGAAT; chemistry not fully specified)" answer_label="Criterion met"
substance="B20: RBS, SEQ ID NO: 52 (DNA TCCCGCATTTTAAAATAAAATAAATGATCTAATTAATTAAACGAAT; chemistry not fully specified)" answer_label="Criterion not met"
substance="A36: RBS, SEQ ID NO: 111 (DNA TCCCGCATTTTAAAATAAAATAAATTATTTGTTTAGTTAAACGAAT; chemistry not fully specified)" answer_label="Criterion met"
substance="A17: RBS, SEQ ID NO: 66 (DNA TCCCGCATTTTAAAATAAAATAAATTATTTTTTTAGTTAAACGAAT; chemistry not fully specified)" answer_label="Criterion not met"
substance="C32: RBS, SEQ ID NO: 91 (DNA TCCCGCATTTTAAAATAAAATAAATTATTGCTTTATTTAAACGAAT; chemistry not fully specified)" answer_label="Criterion met"
substance="C14: RBS, SEQ ID NO: 40 (DNA TCCCGCATTTTAAAATAAAATAAATTATTTCTTTACTTAAACGAAT; chemistry not fully specified)" answer_label="Criterion not met"
substance="A41: RBS, SEQ ID NO: 123 (DNA TCCCGCATTTTAAAATAAAATAAATTATTATTTTATTTAAACGAAT; chemistry not fully specified)" answer_label="Criterion met"
substance="C50: RBS, SEQ ID NO: 132 (DNA TCCCGCATTTTAAAATAAAATAAATTATTTGTTTATTTAAACGAAT; chemistry not fully specified)" answer_label="Criterion met"
substance="B2: RBS, SEQ ID NO: 2 (DNA TCCCGCATTTTAAAATAAAATAAATGATATAATTAATTAAACGAAT; chemistry not fully specified)" answer_label="Criterion not met"

---

System: NanoLuc
assay.info: NanoLuc luciferase reporter expression from constitutive promoters and RBSs integrated with pNBU2
Format: cell-based, B. thetaiotaomicron
condition.details: RBS combined with promoter PBT1311, NanoLuc reporter, three biological replicates
Quick list: Average Luminescence (RLU/CFU) per entry.
property.name: Average Luminescence (RLU/CFU)

substance="B29: RBS, SEQ ID NO: 80 (DNA TCCCGCATTTTAAAATAAAATAAATTATATAGTTAATTAAACGAAT; chemistry not fully specified)" target_or_test_system=NanoLuc measurement_units=RLU/CFU test_result=0.009478
substance="C44: RBS, SEQ ID NO: 122 (DNA TCCCGCATTTTAAAATAAAATAAATTATTTGTTTACTTAAACGAAT; chemistry not fully specified)" target_or_test_system=NanoLuc measurement_units=RLU/CFU test_result=0.00249
substance="B35: RBS, SEQ ID NO: 105 (DNA TCCCGCATTTTAAAATAAAATAAATCATGTACTTAATTAAACGAAT; chemistry not fully specified)" target_or_test_system=NanoLuc measurement_units=RLU/CFU test_result=0.005272
substance="C46: RBS, SEQ ID NO: 125 (DNA TCCCGCATTTTAAAATAAAATAAATTATTTGTTTAGTTAAACGAAT; chemistry not fully specified)" target_or_test_system=NanoLuc measurement_units=RLU/CFU test_result=0.001945
substance="A28: RBS, SEQ ID NO: 94 (DNA TCCCGCATTTTAAAATAAAATAAATTATTCTTTTATTTAAACGAAT; chemistry not fully specified)" target_or_test_system=NanoLuc measurement_units=RLU/CFU test_result=0.006884
substance="A26: RBS, SEQ ID NO: 87 (DNA TCCCGCATTTTAAAATAAAATAAATTATTACTTTATTTAAACGAAT; chemistry not fully specified)" target_or_test_system=NanoLuc measurement_units=RLU/CFU test_result=0.008113
substance="B12: RBS, SEQ ID NO: 22 (DNA TCCCGCATTTTAAAATAAAATAAATAATATATTTAATTAAACGAAT; chemistry not fully specified)" target_or_test_system=NanoLuc measurement_units=RLU/CFU test_result=0.03108
substance="B26: RBS, SEQ ID NO: 68 (DNA TCCCGCATTTTAAAATAAAATAAATTATTTAGTTAATTAAACGAAT; chemistry not fully specified)" target_or_test_system=NanoLuc measurement_units=RLU/CFU test_result=0.01271
substance="B10: RBS, SEQ ID NO: 12 (DNA TCCCGCATTTTAAAATAAAATAAATTATATATTTAATTAAACGAAT; chemistry not fully specified)" target_or_test_system=NanoLuc measurement_units=RLU/CFU test_result=0.04421
substance="A3: RBS, SEQ ID NO: 24 (DNA TCCCGCATTTTAAAATAAAATAAATTATTAGTTTAGTTAAACGAAT; chemistry not fully specified)" target_or_test_system=NanoLuc measurement_units=RLU/CFU test_result=0.02867
substance="C43: RBS, SEQ ID NO: 120 (DNA TCCCGCATTTTAAAATAAAATAAATTATTTCTTTAGTTAAACGAAT; chemistry not fully specified)" target_or_test_system=NanoLuc measurement_units=RLU/CFU test_result=0.00264
substance="A7: RBS, SEQ ID NO: 34 (DNA TCCCGCATTTTAAAATAAAATAAATTATTAGTTTAATTAAACGAAT; chemistry not fully specified)" target_or_test_system=NanoLuc measurement_units=RLU/CFU test_result=0.02467
substance="C16: RBS, SEQ ID NO: 43 (DNA TCCCGCATTTTAAAATAAAATAAATTATTAGTTTAATTAAACGAAT; chemistry not fully specified)" target_or_test_system=NanoLuc measurement_units=RLU/CFU test_result=0.0203
substance="B19: RBS, SEQ ID NO: 42 (DNA TCCCGCATTTTAAAATAAAATAAATTATGTATTTAATTAAACGAAT; chemistry not fully specified)" target_or_test_system=NanoLuc measurement_units=RLU/CFU test_result=0.02048
substance="B6: RBS, SEQ ID NO: 6 (DNA TCCCGCATTTTAAAATAAAATAAATAATATACTTAATTAAACGAAT; chemistry not fully specified)" target_or_test_system=NanoLuc measurement_units=RLU/CFU test_result=0.04723
substance="A2: RBS, SEQ ID NO: 15 (DNA TCCCGCATTTTAAAATAAAATAAATTATTTTTTTACTTAAACGAAT; chemistry not fully specified)" target_or_test_system=NanoLuc measurement_units=RLU/CFU test_result=0.03616
substance="C11: RBS, SEQ ID NO: 36 (DNA TCCCGCATTTTAAAATAAAATAAATTATTTTTTTACTTAAACGAAT; chemistry not fully specified)" target_or_test_system=NanoLuc measurement_units=RLU/CFU test_result=0.02223
substance="C12: RBS, SEQ ID NO: 37 (DNA TCCCGCATTTTAAAATAAAATAAATTATTAGTTTAGTTAAACGAAT; chemistry not fully specified)" target_or_test_system=NanoLuc measurement_units=RLU/CFU test_result=0.02151
substance="C45: RBS, SEQ ID NO: 124 (DNA TCCCGCATTTTAAAATAAAATAAATTATTCATTTAGTTAAACGAAT; chemistry not fully specified)" target_or_test_system=NanoLuc measurement_units=RLU/CFU test_result=0.0024
substance="C42: RBS, SEQ ID NO: 119 (DNA TCCCGCATTTTAAAATAAAATAAATTATTCTTTTAGTTAAACGAAT; chemistry not fully specified)" target_or_test_system=NanoLuc measurement_units=RLU/CFU test_result=0.002801
substance="C26: RBS, SEQ ID NO: 75 (DNA TCCCGCATTTTAAAATAAAATAAATTATTTATTTACTTAAACGAAT; chemistry not fully specified)" target_or_test_system=NanoLuc measurement_units=RLU/CFU test_result=0.009775
substance="C36: RBS, SEQ ID NO: 100 (DNA TCCCGCATTTTAAAATAAAATAAATTATTACTTTATTTAAACGAAT; chemistry not fully specified)" target_or_test_system=NanoLuc measurement_units=RLU/CFU test_result=0.005692
substance="C7: RBS, SEQ ID NO: 20 (DNA TCCCGCATTTTAAAATAAAATAAATTATTAATTTACTTAAACGAAT; chemistry not fully specified)" target_or_test_system=NanoLuc measurement_units=RLU/CFU test_result=0.03249
